- experimental.system: T1, HLA-A*0201 molecule expressed on human tumor cell line T2 (human)
- T1 construct: surface HLA-A2 read with anti-HLA-A2 antibody BB7.2-PE by FACS; also called HLA-A2
- assay.notes: T2 cell HLA-A2 stabilisation, FACS; ratio of 20% concentration to that of HIV pol 589-597 (lower = stronger)
quantity: In vitro binding affinity (relative affinity)
Answers are plain numbers.

For orientation, consider the following solved cases.
binder | test.value
GLLGEFLQI [BIRC5-B3] | 7
RLSSYLVEI [FOXM1-B] | 4.6

Query (binder): FMLGEFLKL [BIRC5-B1] ; field requested: In vitro binding affinity (relative affinity)
0.8
